target: UniProt:P07949; type: cell-based; details: read-out: RET Cell IC50; BaF3 cells expressing KIF5B-RET, 48 hours, CellTiter-Glo
Sequence (P07949 29-1114 limits assumed, change not shown): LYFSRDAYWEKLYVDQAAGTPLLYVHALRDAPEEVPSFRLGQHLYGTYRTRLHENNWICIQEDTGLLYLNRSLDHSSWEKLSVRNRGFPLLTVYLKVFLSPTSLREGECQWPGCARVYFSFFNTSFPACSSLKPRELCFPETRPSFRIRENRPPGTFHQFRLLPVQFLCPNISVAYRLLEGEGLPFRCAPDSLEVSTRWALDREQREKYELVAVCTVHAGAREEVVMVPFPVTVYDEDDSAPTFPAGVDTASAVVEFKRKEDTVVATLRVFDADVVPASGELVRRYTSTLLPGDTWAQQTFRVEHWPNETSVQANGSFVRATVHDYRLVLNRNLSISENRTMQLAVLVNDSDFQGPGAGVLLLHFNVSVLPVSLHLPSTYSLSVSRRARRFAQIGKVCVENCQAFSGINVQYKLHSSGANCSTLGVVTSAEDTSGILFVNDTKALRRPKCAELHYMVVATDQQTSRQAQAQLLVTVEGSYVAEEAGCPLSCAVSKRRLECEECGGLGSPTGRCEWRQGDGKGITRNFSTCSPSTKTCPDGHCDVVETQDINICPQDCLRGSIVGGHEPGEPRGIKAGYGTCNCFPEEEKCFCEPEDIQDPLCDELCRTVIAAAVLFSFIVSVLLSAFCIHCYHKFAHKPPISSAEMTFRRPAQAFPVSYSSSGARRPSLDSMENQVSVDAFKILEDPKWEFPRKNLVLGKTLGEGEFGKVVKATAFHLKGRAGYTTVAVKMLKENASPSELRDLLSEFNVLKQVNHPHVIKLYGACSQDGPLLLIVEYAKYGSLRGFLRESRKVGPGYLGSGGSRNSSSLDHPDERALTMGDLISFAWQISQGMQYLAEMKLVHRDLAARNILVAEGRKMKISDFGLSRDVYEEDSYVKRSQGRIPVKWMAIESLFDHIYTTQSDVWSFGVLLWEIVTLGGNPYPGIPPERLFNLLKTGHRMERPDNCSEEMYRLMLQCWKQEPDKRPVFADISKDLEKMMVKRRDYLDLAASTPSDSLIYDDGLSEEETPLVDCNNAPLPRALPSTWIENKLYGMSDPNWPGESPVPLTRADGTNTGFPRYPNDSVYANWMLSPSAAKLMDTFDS
endpoint-name: pIC50
pIC50 here is simply -log10 of the concentration when that concentration is written in mol/L.

State the recorded pIC50 for this entry: CC(C)n1nc(-c2cc3ccccc3[nH]2)c2c(N)ncnc21
7.08
